Where do these numbers come from? They come from ChEMBL document CHEMBL1128299.

For each record, write down the corresponding Ki.

Find Ki (Mu-type opioid receptor (Cavia porcellus)) for the entry Oc1ccc2c3c1O[C@H]1c4c(c5ccccc5n4Cc4cccc(N=C=S)c4)C[C@@]4(O)C(C2)N(CC2CC2)CCC314 (some centres undefined)
66.2 nM

Find Ki (Mu-type opioid receptor (Cavia porcellus)) for the entry O=C(CBr)Nc1cccc(Cn2c3c(c4ccccc42)C[C@@]2(O)C4Cc5ccc(O)c6c5C2(CCN4CC2CC2)[C@H]3O6)c1 (some centres undefined)
15.3 nM

Find Ki (Mu-type opioid receptor (Cavia porcellus)) for the entry Oc1ccc2c3c1O[C@H]1c4c(c5ccccc5n4Cc4ccc(N=C=S)cc4)C[C@@]4(O)C(C2)N(CC2CC2)CCC314 (some centres undefined)
289 nM

Find Ki (Mu-type opioid receptor (Cavia porcellus)) for the entry Oc1ccc2c3c1O[C@H]1c4c(c5ccccc5n4Cc4ccccc4N=C=S)C[C@@]4(O)C(C2)N(CC2CC2)CCC314 (some centres undefined)
151 nM

====

Molecular target: Delta-type opioid receptor (Homo sapiens) (UniProt P41143)
Assay: Selectivity ratio as ratio of ED50 value against delta-2 receptor to that delta-1 receptor after hours of administration,
Format: functional, organism-based
endpointLabel: Selectivity
Lab note: record the figure alone, no unit after it.

Item O=C(CBr)Nc1cccc(Cn2c3c(c4ccccc42)C[C@@]2(O)C4Cc5ccc(O)c6c5C2(CCN4CC2CC2)[C@H]3O6)c1 (stereo not given in full) has what recorded Selectivity?
2.5

Item Oc1ccc2c3c1O[C@H]1c4c(c5ccccc5n4Cc4ccc(N=C=S)cc4)C[C@@]4(O)C(C2)N(CC2CC2)CCC314 (stereo not given in full) has what recorded Selectivity?
1.7

Item Oc1ccc2c3c1O[C@H]1c4c(c5ccccc5n4Cc4cccc(N=C=S)c4)C[C@@]4(O)C(C2)N(CC2CC2)CCC314 (stereo not given in full) has what recorded Selectivity?
1.2

Item Oc1ccc2c3c1O[C@H]1c4c(c5ccccc5n4Cc4ccccc4N=C=S)C[C@@]4(O)C(C2)N(CC2CC2)CCC314 (stereo not given in full) has what recorded Selectivity?
0.5

Item Oc1ccc2c3c1O[C@H]1c4c(c5ccccc5n4Cc4ccccc4)C[C@@]4(O)C(C2)N(CC2CC2)CCC314 (stereo not given in full) has what recorded Selectivity?
7.4

====

Target: Opioid receptors; mu & delta (Homo sapiens) (UniProt P41143+P35372)
Sequence (P35372 whole entry, looked up): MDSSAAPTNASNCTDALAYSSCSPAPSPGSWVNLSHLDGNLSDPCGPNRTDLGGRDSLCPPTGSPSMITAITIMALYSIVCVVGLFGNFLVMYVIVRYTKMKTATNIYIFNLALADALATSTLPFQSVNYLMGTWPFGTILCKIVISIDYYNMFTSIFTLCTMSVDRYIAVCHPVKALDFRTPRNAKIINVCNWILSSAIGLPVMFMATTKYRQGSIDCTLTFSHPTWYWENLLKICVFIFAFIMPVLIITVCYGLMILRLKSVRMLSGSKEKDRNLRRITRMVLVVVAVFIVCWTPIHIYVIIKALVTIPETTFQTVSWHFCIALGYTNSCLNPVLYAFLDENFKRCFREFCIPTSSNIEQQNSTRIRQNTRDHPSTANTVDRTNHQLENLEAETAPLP
Sequence (P41143 whole entry, looked up): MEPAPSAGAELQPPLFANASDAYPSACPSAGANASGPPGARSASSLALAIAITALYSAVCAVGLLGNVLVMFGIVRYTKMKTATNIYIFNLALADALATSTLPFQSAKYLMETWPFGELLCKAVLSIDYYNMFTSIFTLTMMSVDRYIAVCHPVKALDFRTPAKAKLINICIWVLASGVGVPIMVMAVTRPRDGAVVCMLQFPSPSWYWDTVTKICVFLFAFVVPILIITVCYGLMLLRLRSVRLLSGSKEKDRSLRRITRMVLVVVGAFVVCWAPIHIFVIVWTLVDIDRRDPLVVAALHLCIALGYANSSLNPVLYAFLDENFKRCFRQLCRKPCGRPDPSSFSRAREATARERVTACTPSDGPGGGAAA
Assay: Selectivity ratio as the ratio of IC50 ratio of delta receptor to that of mu receptor.
Format: functional
For each record, write down the corresponding Selectivity.
Lab note: record the figure alone, no unit after it.

Item CC(=O)Nc1cccc(Cn2c3c(c4ccccc42)C[C@@]2(O)C4Cc5ccc(O)c6c5C2(CCN4CC2CC2)[C@H]3O6)c1 (some centres undefined) has what recorded Selectivity?
31

Item Oc1ccc2c3c1O[C@H]1c4c(c5ccccc5n4Cc4ccc(N=C=S)cc4)C[C@@]4(O)C(C2)N(CC2CC2)CCC314 (some centres undefined) has what recorded Selectivity?
25

Item O=C(CBr)Nc1cccc(Cn2c3c(c4ccccc42)C[C@@]2(O)C4Cc5ccc(O)c6c5C2(CCN4CC2CC2)[C@H]3O6)c1 (some centres undefined) has what recorded Selectivity?
135

Item O=C(CBr)Nc1ccccc1Cn1c2c(c3ccccc31)C[C@@]1(O)C3Cc4ccc(O)c5c4C1(CCN3CC1CC1)[C@H]2O5 (some centres undefined) has what recorded Selectivity?
21
